Value source: PubChem BioAssay (NCATS)

assay_notes: Cell Viability - LYMP2-018 (AID 985);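 note: compound exposure lasted 24 hr at 37 °C; nearly all actives have a fitted effect of over 50% in size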
protocol_conditions: LYMP2-018 lymphoblastoid cells, viability (qHTS); series mostly up to 92.2 µM
Results filed as inconclusive are left out. Active and inactive are the calls of the source. Calls come from the whole dose curve; as a rule, active = well fitted cell-killing curve with a large enough effect; inconclusive = small, poorly fitted or top-dose-only effect; inactive = flat fitted curve, though single readings scatter.
Log the outcome using a class from yes for active, no for inactive

N=C1C=CC(=C(c2ccc(N)cc2)c2ccc(N)cc2)C=C1: yes
c1ccc(SCCSc2ccccc2)cc1: no
Cc1cccnc1: no
CC/C=C/C/C=C/C/C=C/CCCCCCCC(=O)OCC: yes
CC(=O)OC(C(=O)c1ccccc1)c1ccccc1 (stereo not drawn): no
Nc1cc(C(=O)O)c(O)c(S(=O)(=O)O)c1: no

Data request: # fetch the recorded call for "COc1ccc(C)cc1N" here
Data returned: no

Data request: # fetch the recorded call for "Clc1nc2ccccc2nc1Cl" here
Data returned: no

---

Examples of molecules with documented activity, negative = inhibition follow.
assay_notes: Stat Signaling Pathway (AID 446);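 note: ME-180 cervical cancer cells given 40 pM IL-6 alongside compound; SIE-controlled beta-lactamase reporter measured as 460/530 nm FRET emission ratio; % is set by controls: 0 for no effect and ±100 for the full control effect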
protocol_conditions: ME-180 (cervical carcinoma) SIE beta-lactamase reporter, IL-6 stimulated, 5 h; at 7.69 µM (top of the series) unless noted
Inconclusive results are not listed.
Express the result in % but write the number alone.

For orientation, consider the following solved cases.
N=C(CC(=O)Nc1ccccn1)c1ccccc1: 5.02
Nc1nc(-c2cccnc2)cc(-c2cc(-c3cccnc3)nc(N)n2)n1: 1.62
Cc1cc2cc3c(=O)[nH]c(=O)[nH]c3nc2cc1C: -6.9
Cc1cc(N2CCOCC2)nc2ccc(Cc3ccc4nc(N5CCOCC5)cc(C)c4c3)cc12: -14.5

Recorded activity, negative = inhibition (molecule "C[N+]1([C@H](CO)Cc2c[nH]c3ccccc23)Cc2ccccc2C1" ): 13.4

Recorded activity, negative = inhibition (molecule "CC(=O)Nc1ccc(-c2cc(C(=O)O)c3cc4ccccc4cc3n2)cc1" ): -2.25

---

target_entity: 3',5'-cyclic-AMP phosphodiesterase 4B (Homo sapiens)
assay_notes: qHTS Assay for Inhibitors of PDE-IV (AID 607); note: % of control where 0% means no effect
protocol_conditions: HEK293 ACTOne CNG channel cells, membrane potential fluorescence; series mostly up to 22.9 µM
Records with an inconclusive call do not appear. Active and inactive are the calls of the source. Calls follow the shape of the dose curve; as a rule, active = well fitted activation curve with a large enough effect in the main read-out, with a control signal flat (not every such curve was filed as active); inconclusive = small, poorly fitted or top-dose-only effect, or effect the other way, or a change in a side signal; inactive = flat fitted curve, though single readings scatter.
measure: outcome

For orientation, consider the following solved cases.
CN(C)C[C@@H](O)c1ccc(Cl)c2ccccc12: inactive
Nc1nc(N)c(N=Nc2ccc(C(=O)O)c(O)c2)c(N)n1: inactive
O=C(O)C12CC3(C(=O)O)CC(C(=O)O)(CC(C(=O)O)(C1)C3=O)C2=O: inactive
N=C(N)SC(c1ccccc1)c1ccccc1: inactive
O=c1cc(N=Nc2ccc(O)cc2)[nH]c(=O)[nH]1: inactive

Recorded outcome (compound "NCCSCc1ccccc1Cl" ): inactive

Recorded outcome (compound "CN(C)CCSS(=O)(=O)O" ): inactive

Recorded outcome (compound "NS(=O)(=O)c1cc(C(=O)O)c(O)c2ccccc12" ): inactive

Recorded outcome (compound "N=C(N)SCCN1CCCCC1" ): inactive

Recorded outcome (compound "O=C(C[C@@H](c1ccccc1)N1CCCCC1)c1ccccc1" ): inactive

Recorded outcome (compound "Nc1nc(-c2cc(-c3cccc4ccccc34)nc(N)n2)cc(-c2cccc3ccccc23)n1" ): inactive

Recorded outcome (compound "O=C(O)CC12C[C@H]3C[C@@H](CC(O)(C3)C1)C2" ): inactive

---

target_entity: Cytochrome P450 1A2 (Homo sapiens)
assay_notes: p450-cyp1a2 (AID 410)
protocol_conditions: recombinant CYP1A2, luciferin-ME demethylation, luminescence; series mostly up to 11.4 µM
Records with an inconclusive call do not appear. Active and inactive are the calls of the source. Calls follow the shape of the full dose curve.
Log the outcome using a class from active, inactive

C[C@@]12CC[C@@H]3[C@H](CCC4=CC(=O)CC[C@]43C)[C@@H]1CC[C@@H]2C(=O)Cn1cnc2c(=S)nc[nH]c21: inactive
CN(C)CCn1c(CO)nc2c1c(=O)n(C)c(=O)n2C: inactive
CCCCn1cnc2c(c(CC#N)nn2-c2ccccc2)c1=N: active
O=C(O)/C(=C\c1ccc(O)cc1)c1cccc2ccccc12: inactive
O=C(O)c1nc2nc(Cl)c(Cl)nc2[nH]1: inactive
COC(=O)[C@](C)(N)Cc1ccc(O)cc1: inactive

Data request: # fetch the recorded call for "O=C1C(Cl)=C(Sc2nnc3c4ccccc4c4ccccc4c3n2)C(=O)c2ccccc21" here
Data returned: active

Data request: # fetch the recorded call for "O=C1c2ccccc2C(=O)c2c1ccc(C(=O)O)c2-c1ccc2ccccc2c1" here
Data returned: active

Data request: # fetch the recorded call for "COc1ncc2nc(-c3ccc(Cl)cc3)c(=O)n(C[C@H]3CCCO3)c2n1" here
Data returned: active

Data request: # fetch the recorded call for "O=C(O)c1c2c(c(O)c3c1CN(C1CCCCC1)CO3)OCN(C1CCCCC1)C2" here
Data returned: inactive
